- experimentalTarget: Renin (Homo sapiens, UniProt P00797)
- Sequence (P00797 whole entry): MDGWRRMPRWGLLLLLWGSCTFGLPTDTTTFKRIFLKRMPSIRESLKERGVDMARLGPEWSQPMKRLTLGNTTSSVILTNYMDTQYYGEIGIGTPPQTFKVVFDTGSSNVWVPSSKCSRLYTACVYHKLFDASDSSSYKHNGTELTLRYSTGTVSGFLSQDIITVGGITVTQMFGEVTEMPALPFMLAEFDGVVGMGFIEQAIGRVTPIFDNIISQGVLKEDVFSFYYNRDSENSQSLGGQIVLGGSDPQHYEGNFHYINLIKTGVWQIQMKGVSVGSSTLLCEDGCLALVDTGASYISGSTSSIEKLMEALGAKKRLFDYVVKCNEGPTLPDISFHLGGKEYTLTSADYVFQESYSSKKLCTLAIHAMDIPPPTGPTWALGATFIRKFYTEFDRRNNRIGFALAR
- assayOverview: Inhibition against recombinant human renin (rHR)
pIC50: −log10 of the molar value.
reportedProperty: pIC50

1. CSC[C@H](NC(=O)CNC(=O)N1CCC(=O)CC1)C(=O)N[C@@H](Cc1ccc(Oc2ccccc2)cc1)[C@@H](O)[C@@H](O)CC(C)C
7.18
2. CSC[C@H](NC(=O)CNC(=O)N1CCC(=O)CC1)C(=O)N[C@@H](Cc1ccccc1)[C@@H](O)[C@@H](O)CC(C)C
4.80
3. CSC[C@H](NC(=O)CNC(=O)N1CCC(=O)CC1)C(=O)N[C@@H](Cc1cccc(-c2ccccc2)c1)[C@@H](O)[C@@H](O)CC(C)C
6.96
4. CSC[C@H](NC(=O)[C@H](Cc1ccccc1)NC(=O)N1CCC(=O)CC1)C(=O)N[C@@H](CC1CCCCC1)[C@@H](O)[C@@H](O)CC(C)C
9.52
5. CSC[C@H](NC(=O)CNC(=O)N1CCC(=O)CC1)C(=O)N[C@@H](CC1CCCCC1)[C@@H](O)[C@@H](O)CC(C)C
5.92
